Reported yeast fitness by item:
B1: tRNA (parent)
chain: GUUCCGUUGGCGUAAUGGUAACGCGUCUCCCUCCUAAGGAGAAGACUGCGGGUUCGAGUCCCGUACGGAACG

# Variants of: B1
# experimentNotes: yeast fitness relative to wild type (ratio to wild type); higher = fitter; tRNA-Arg(CCU), competitive growth, 37 C, YPD
Variants at the floor of the assay were thinned out.
experimentalEndpoint: yeast fitness

mutantdesignation=U13A readingqualifier== readoutnumber=0.993
mutantdesignation="A15C C31G A40U" readingqualifier== readoutnumber=0.624
mutantdesignation="G10C G51C A65C C66U" readingqualifier=≤ readoutnumber=0.5
mutantdesignation="G17C U53A" readingqualifier== readoutnumber=0.583
mutantdesignation="U3A C11G G12A C22U G39A" readingqualifier=≤ readoutnumber=0.5
mutantdesignation="A14C A20G A45C A57C" readingqualifier=≤ readoutnumber=0.5
mutantdesignation="C31U U32G C33G G58C" readingqualifier=≤ readoutnumber=0.5
mutantdesignation="A15G G23A C60U" readingqualifier=≤ readoutnumber=0.5
mutantdesignation="G12C U16A C60G C61U G68A" readingqualifier=≤ readoutnumber=0.5
mutantdesignation="C5U C11U G25C A45C C62A A70U" readingqualifier== readoutnumber=0.611
mutantdesignation="U3C A40G G58C A70U" readingqualifier=≤ readoutnumber=0.5
mutantdesignation="C5G U7G" readingqualifier== readoutnumber=0.564
mutantdesignation="C4U G9A C24G A37C A57U" readingqualifier== readoutnumber=0.543
mutantdesignation="U19G G58C G67C" readingqualifier== readoutnumber=0.61
mutantdesignation="U7A U19C C27G A43U U47A A65U G67C" readingqualifier=≤ readoutnumber=0.5
mutantdesignation="A15C U35C C46G" readingqualifier== readoutnumber=0.67
mutantdesignation="C22A C24A" readingqualifier== readoutnumber=0.54
mutantdesignation="C5U C24U G44C" readingqualifier== readoutnumber=0.528
mutantdesignation="U28G C46A C61G" readingqualifier=≤ readoutnumber=0.5
mutantdesignation="A40C G41C C49A G68C" readingqualifier=≤ readoutnumber=0.5
mutantdesignation="G41C A65C A70U" readingqualifier== readoutnumber=0.641
mutantdesignation="A45U C55A" readingqualifier== readoutnumber=0.566
